experiment.summary: Solubility in isopropanol
Type: physicochemical
test.settings: 20 °C, organic solvent or mixture
observable: solubility

### Prompt Find the recorded solubility belonging to COC(=O)N1CCN(Cc2cccc(NC(=O)Nc3ccc(C)nc3)c2F)CC1 and report it.
### Response ~12 mg/mL
